test system: MKL-1; test: qHTS assay to identify novel small-molecules to repurpose for Merkel cell carcinoma treatment (AID 1296009); settings: MCC and control cell lines, CellTiter-Glo viability, 72 h; series mostly up to 46 µM; note: nearly all actives have a fitted effect of over 60% in size
Results filed as inconclusive are left out. Activity calls are given as the source filed them. Calls come from the whole dose curve; as a rule, active = well fitted inhibition curve with a large enough effect; inconclusive = small, poorly fitted or top-dose-only effect; inactive = flat fitted curve, though single readings scatter.
Tick one outcome: 1.0 = active, 0.0 = inactive

Q: Record request — test call for O=C(O)CCCCCC(=O)NN=C1CCCC1
Result: 0.0

Q: Could you kindly confirm the outcome this assay logged for Nc1nc2c(c(=O)[nH]1)N(C=O)[C@H](CNc1ccc(C(=O)N[C@@H](CCC(=O)O)C(=O)O)cc1)CN2 ?
Result: 0.0

Q: What was the test verdict on Cc1ccccc1C(=O)Nc1ccc(C(=O)N2CCCC(O)c3cc(Cl)ccc32)c(C)c1 (stereo not given) ?
Result: 0.0

Q: Per the assay record, what outcome was assigned to Cc1cnc(Nc2ccc(CN3CCOCC3)cc2)nc1Nc1cccc(S(=O)(=O)NC(C)(C)C)c1 ?
Result: 1.0

Q: Field: outcome | Entry: N#Cc1c(C2CCNCC2)cc(-c2c(O)cccc2OCC2CC2)nc1N
Result: 0.0

Q: Recorded test outcome, item Cn1cc(C=CC(=O)c2cccc(F)c2)cc1C=CC(=O)NO
Result: 0.0

Q: Test call, this compound: CC(C=CC(=O)NO)=C[C@@H](C)C(=O)c1ccc(N(C)C)cc1
Result: 1.0

Q: How was COc1cc(C=CC(=O)CC(=O)C=Cc2ccc(O)c(OC)c2)ccc1O classified in this test?
Result: 1.0

Q: # outcome recorded in this test, key = O=C(O)C[C@H](O)C[C@H](O)C=Cc1c(C2CC2)nc2ccccc2c1-c1ccc(F)cc1
Result: 1.0

Q: Give the logged outcome of this assay for the following compound: NC(=O)c1cccc(-c2cccc(OC(=O)NC3CCCCC3)c2)c1
Result: 0.0

Q: // param item: C[C@@H](NCc1cc2ccccc2[nH]1)c1cccc2ccccc12 ; yields the recorded call
Result: 0.0

Q: Field: outcome | Entry: C[C@]12C=CC(=O)N[C@@H]1CC[C@H]1[C@H]3CC[C@@H](C(=O)Nc4cc(C(F)(F)F)ccc4C(F)(F)F)[C@@]3(C)CC[C@@H]12
Result: 0.0

Q: What classification did Nc1ccc(C(=O)Nc2cccc(-c3nc(N4CCOCC4)c4oc5ncccc5c4n3)c2)cn1 end up with in this test?
Result: 0.0

Q: Please indicate how the test categorized c1cncc(CN2CCC(n3ncc4c(N5CCOCC5)nc(-c5ccc6[nH]ccc6c5)nc43)CC2)c1 .
Result: 0.0

Q: I'd appreciate the recorded outcome for CCOC(=O)C=C[C@H](C[C@@H]1CCNC1=O)NC(=O)[C@@H](CC(=O)[C@@H](NC(=O)c1cc(C)on1)C(C)C)Cc1ccc(F)cc1 from this test.
Result: 0.0

Q: I would be grateful if you could indicate the recorded call for CCc1cc(C(C)=NOCc2ccc(C3CCCCC3)c(C(F)(F)F)c2)ccc1CN1CC(C(=O)O)C1 .
Result: 0.0

Q: Would you mind telling me which call this test gave c1ccc(CNc2nc(NCc3ccccc3)c3ccccc3n2)cc1 ?
Result: 0.0

Q: Name the outcome recorded for CN1[C@H]2CC(OC(=O)[C@@H](CO)c3ccccc3)C[C@H]1[C@H]1O[C@H]12 (stereo not given in full) in the assay.
Result: 0.0

Q: Tell me the assay call for c1cc(N[C@@H]2CCNC2)nc(-c2cnc3ccc(-c4cn[nH]c4)cn23)c1 please.
Result: 1.0

Q: Any idea what this test logged for O=C1c2cccc(O)c2C(=O)c2c(O)cc(CO)cc21 ?
Result: 0.0

Q: Could you please tell me the result logged for C[C@@H]1[C@H](C)CC[C@]2(C(=O)O)CC[C@]3(C)C(=CC[C@@H]4[C@@]5(C)C[C@@H](O)[C@H](O)[C@@](C)(CO)[C@H]5CC[C@]43C)[C@@H]12 in this assay?
Result: 0.0

Q: What was the test verdict on CC(=O)C1=C(O)C=C2Oc3c(C(C)=O)c(O)c(C)c(O)c3C2(C)C1=O (stereo not given) ?
Result: 0.0

Q: Write down the call the test reported for this compound. Item: C[C@@H](Cc1cc2c(c(C(N)=O)c1)N(CCCO)CC2)NCCOc1ccccc1OCC(F)(F)F
Result: 0.0

Q: What call does the record list for Cn1cnc(=N)c2[nH]cnc21 ?
Result: 1.0

Q: Status in this test for O=C1NC(=O)C(=Cc2ccc3nccc(-c4ccncc4)c3c2)S1 ?
Result: 1.0

Q: What was the test verdict on C[C@H](CCC(=O)O)[C@H]1CC[C@H]2[C@@H]3[C@H](O)C[C@@H]4C[C@H](O)CC[C@]4(C)[C@@H]3CC[C@]12C ?
Result: 0.0

Q: Each compound tested received a call. Report the one for CON=C(C(=O)N[C@@H]1C(=O)N2C(C(=O)O)=C(Cn3ccc(=N)n3CCO)CS[C@H]12)c1csc(N)n1 .
Result: 0.0

Q: What outcome does the record of this test show for CC[C@H]1OC(=O)[C@H](C)[C@@H](O[C@H]2C[C@@](C)(OC)[C@@H](O)[C@H](C)O2)[C@H](C)[C@@H](O[C@@H]2O[C@@H](C)C[C@H](N(C)C)[C@@H]2O)[C@](C)(O)C[C@@H](C)C(=O)[C@H](C)[C@@H](O)[C@]1(C)O ?
Result: 0.0

Q: Record lookup: outcome of this test for O=[N+]([O-])c1cn2c(n1)OC[C@@H](OCc1ccc(OC(F)(F)F)cc1)C2 ?
Result: 0.0

Q: For O=C(O)C=Cc1ccc(Cn2ccnc2)cc1 , what call appears in the results of this test?
Result: 0.0

Q: Which result was noted for this compound in the test: O=C1NC(O)CCN1[C@@H]1O[C@H](CO)[C@H](O)[C@H]1O (stereo not given in full)
Result: 0.0

Q: Give the logged outcome of this assay for the following compound: Oc1cc(-c2nc(-c3ccccc3)[nH]c2-c2ccncc2)ccc1Cl
Result: 0.0

Q: Tell me the assay call for CC(=O)O[C@H]1C[C@@H]2CC[C@H]3[C@H]4C[C@H]([N+]5(C)CCCCC5)[C@@H](OC(C)=O)[C@@]4(C)CC[C@@H]3[C@@]2(C)C[C@H]1[N+]1(C)CCCCC1 please.
Result: 0.0

Q: What call does the record list for COC(=O)C1C2CC3c4[nH]c5cc(OC)ccc5c4CCN3CC2CC(OC(=O)c2cc(OC)c(OC)c(OC)c2)C1OC (stereo not given) ?
Result: 0.0

Q: Please state the recorded outcome for this compound: C=C(C)[C@@H]1CC[C@]2(C(=O)O)CC[C@]3(C)[C@H](CC[C@@H]4[C@@]5(C)CC[C@H](O)C(C)(C)[C@@H]5CC[C@]43C)[C@@H]12
Result: 0.0
